Experimental Target: Cellular tumor antigen p53 (Homo sapiens) (UniProt P04637)
Sequence (P04637 whole entry, looked up): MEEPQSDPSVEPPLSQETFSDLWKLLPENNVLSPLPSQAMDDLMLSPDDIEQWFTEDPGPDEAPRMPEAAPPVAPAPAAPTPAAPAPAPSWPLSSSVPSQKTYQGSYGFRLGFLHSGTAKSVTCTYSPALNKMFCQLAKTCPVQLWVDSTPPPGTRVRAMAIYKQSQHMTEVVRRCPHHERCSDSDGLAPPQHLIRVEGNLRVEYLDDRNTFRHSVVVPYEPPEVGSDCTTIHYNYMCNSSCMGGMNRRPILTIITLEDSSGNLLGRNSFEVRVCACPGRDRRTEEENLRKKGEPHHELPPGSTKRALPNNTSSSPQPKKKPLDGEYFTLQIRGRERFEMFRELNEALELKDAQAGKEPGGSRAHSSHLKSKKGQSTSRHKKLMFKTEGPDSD
Assay Overview: TOX21_p53_BLA_p3_ratio: Tox21 HCT-116 p53 Agonism Beta-lactamase Assay, Ratio, Phase 3 (AID 2283596)
Results filed as inconclusive are left out. The source made the active and inactive calls. How the source made its calls: active means hit-call score of the fitted dose curve at least 0.9, where 1 is the maximum; inconclusive means response in the unintended direction; inactive means score below 0.9.
Assay Endpoint: outcome

The following compounds have reported results that may help.
>  <Compound>
CCCOC(=O)c1ccc(O)cc1

>  <Assay Endpoint>
outcome

>  <Reported>
inactive

$$$$
>  <Compound>
CCc1ccc(CCOc2ccc(CC3SC(=O)NC3=O)cc2)nc1 (stereo not given)

>  <Assay Endpoint>
outcome

>  <Reported>
inactive

$$$$
>  <Compound>
c1ccc2c(c1)Cc1ccccc1-2

>  <Assay Endpoint>
outcome

>  <Reported>
inactive

$$$$
>  <Compound>
c1ccc2c(c1)ccc1ccccc12

>  <Assay Endpoint>
outcome

>  <Reported>
inactive

$$$$

Continue with the next compound.
Fill in reported outcome for this entry: CCCCC(CC)COC(=O)CCCCC(=O)OCc1ccccc1 (stereo not given)
inactive

###

Assay Overview: ATG_Oct_MLP_CIS: Attagene CIS-FACTORIAL HepG2 Assay for human Octamer-Binding Transcription Factor (Oct) (AID 2282993)
Experimental Conditions: HepG2 Attagene cis-factorial Oct reporter, mRNA; actives raise or lower the signal
Active and inactive are the calls of the source. Rule for the calls: active = hit-call score of the fitted dose curve at least 0.9, where 1 is the maximum; inactive = score below 0.9.
Reply using exactly one outcome from active, inactive

Answered cases to consult:
>  <Compound>
CCC(C)(C)C1CCC(O)CC1 (centres undefined)

>  <Answer Label>
inactive

$$$$
>  <Compound>
CC(=O)CC(C)(C)O

>  <Answer Label>
inactive

$$$$
>  <Compound>
CCCCCCCCCCCCN1CCCC1=O

>  <Answer Label>
inactive

$$$$
>  <Compound>
Cc1cc(CCN2CCN(c3nsc4ccccc34)CC2)cc2c1NC(=O)CC2(C)C

>  <Answer Label>
active

$$$$
>  <Compound>
CCCCC(CC)COC(=O)CCCCC(=O)OCC(CC)CCCC (centres undefined)

>  <Answer Label>
inactive

$$$$
>  <Compound>
CCCCCCC(=O)O

>  <Answer Label>
inactive

$$$$
>  <Compound>
COc1ccc([N+](=O)[O-])cc1N

>  <Answer Label>
inactive

$$$$
>  <Compound>
CCOC(=O)CC(O)(CC(=O)OCC)C(=O)OCC

>  <Answer Label>
inactive

$$$$
>  <Compound>
O=[N+]([O-])c1ccc(O)cc1

>  <Answer Label>
inactive

$$$$
>  <Compound>
CCCCC(CC)COC(=O)CCCCC(=O)OCc1ccccc1 (centres undefined)

>  <Answer Label>
inactive

$$$$

Just curious, what result did N#C[C@@H]1CC(F)(F)CN1C(=O)CNC1CC2CCC(C1)N2c1ncccn1 (some centres undefined) get here?
inactive

What classification did CCCCOCCO end up with in this test?
inactive

Lab log entry: CCCCC[C@H](O)CC(=O)CCc1ccc(O)c(OC)c1 — outcome as called in the assay?
inactive

Short answer needed: outcome of this test for CCCCCCCC(=O)O ?
inactive

###

Read-out: UDP glucuronosyltransferase (UGT1A6), UGT1A6 (gene 54578)
Assay Overview: LTEA_HepaRG_UGT1A6: Life Technologies and Expression Analysis (LTEA) Assay for UDP glucuronosyltransferase (UGT1A6) using HepaRG (AID 2283539)
Experimental Conditions: mRNA level, 48 h; actives raise or lower the signal
Active and inactive are the calls of the source. The calls were made as follows: active = hit-call score of the fitted dose curve at least 0.9, where 1 is the maximum; inactive = score below 0.9.
Reply using exactly one outcome from 1 (active), 0 (inactive)

# count of solved cases: 6
>  <Compound Structure>
OC1CCCCC1

>  <Answer Label>
0

$$$$
>  <Compound Structure>
C[C@@H]1C[C@H]2[C@@H]3CCC4=CC(=O)C=C[C@]4(C)[C@@]3(F)[C@@H](O)C[C@]2(C)[C@@]1(O)C(=O)COP(=O)(O)O

>  <Answer Label>
0

$$$$
>  <Compound Structure>
OCCC(F)(F)C(F)(F)C(F)(F)C(F)(F)C(F)(F)C(F)(F)C(F)(F)C(F)(F)F

>  <Answer Label>
0

$$$$
>  <Compound Structure>
CC[C@H](C)[C@@H](C(=O)O)n1sc2ccccc2c1=O

>  <Answer Label>
0

$$$$
>  <Compound Structure>
Oc1cc2ccccc2c2ccccc12

>  <Answer Label>
0

$$$$
>  <Compound Structure>
O=[N+]([O-])c1ccc(O)cc1

>  <Answer Label>
0

$$$$

Just curious, what result did CC#C[C@]1(O)CC[C@H]2[C@@H]3CCC4=CC(=O)CCC4=C3[C@@H](c3ccc(N(C)C)cc3)C[C@@]21C get here?
1

I'd appreciate the recorded outcome for Cc1oc(-c2ccccc2)nc1CCOc1ccc(C[C@H](Nc2ccccc2C(=O)c2ccccc2)C(=O)O)cc1 from this test.
1

Name the outcome recorded for CC(=O)NC1(c2cccc(F)c2)CCN(CC[C@@]2(c3ccc(Cl)c(Cl)c3)CN(c3ccccc3)C(=O)CO2)CC1 in the assay.
0

Recorded test outcome, item CC1=C(/C=C/C(C)=C/C=C/C(C)=C/C(=O)O)C(C)(C)CCC1
1

###

Experimental Target: Retinoic acid receptor RXR-alpha (Homo sapiens) (UniProt P19793)
Sequence (P19793 whole entry, looked up): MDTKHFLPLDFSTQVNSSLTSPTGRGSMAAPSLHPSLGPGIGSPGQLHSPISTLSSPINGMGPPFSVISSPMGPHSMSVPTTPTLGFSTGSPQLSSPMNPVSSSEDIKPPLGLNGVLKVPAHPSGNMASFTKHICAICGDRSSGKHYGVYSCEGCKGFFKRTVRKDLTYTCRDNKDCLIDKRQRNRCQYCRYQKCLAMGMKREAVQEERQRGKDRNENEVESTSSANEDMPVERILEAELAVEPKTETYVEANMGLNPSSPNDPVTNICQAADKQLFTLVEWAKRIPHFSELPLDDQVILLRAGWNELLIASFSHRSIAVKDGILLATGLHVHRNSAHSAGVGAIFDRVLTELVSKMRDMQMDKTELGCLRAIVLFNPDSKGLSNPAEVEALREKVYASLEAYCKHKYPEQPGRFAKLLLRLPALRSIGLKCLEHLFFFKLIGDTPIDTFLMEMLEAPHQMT
Assay Overview: OT_NURR1_NURR1RXRa_0480: Odyssey Thera (OT) 8-hour HEK293T Protein Complementation Assay for Nurr1/retinoid X receptor (RXR) (AID 2283385)
Results filed as inconclusive are left out. Activity calls are given as the source filed them. Rule for the calls: active = hit-call score of the fitted dose curve at least 0.9, where 1 is the maximum; inconclusive = response in the unintended direction; inactive = score below 0.9.
Tick one outcome: 1.0 = active, 0.0 = inactive

Worked examples, 5 compounds total:
>  <Compound Structure>
CC[C@H](c1ccc(O)cc1)[C@@H](CC)c1ccc(O)cc1

>  <Answer Label>
0.0

$$$$
>  <Compound Structure>
C#C[C@]1(O)CC[C@H]2[C@@H]3CCC4=CC(=O)CC[C@@H]4[C@H]3CC[C@@]21C

>  <Answer Label>
0.0

$$$$
>  <Compound Structure>
CCCCCCC(=O)O

>  <Answer Label>
0.0

$$$$
>  <Compound Structure>
OCCC(F)(F)C(F)(F)C(F)(F)C(F)(F)C(F)(F)C(F)(F)C(F)(F)C(F)(F)F

>  <Answer Label>
0.0

$$$$
>  <Compound Structure>
Oc1cccc(O)c1

>  <Answer Label>
0.0

$$$$

// return assay outcome for c1ccc2c(c1)ccc1ccccc12
0.0

Kindly provide the recorded test outcome for the following compound: Cc1oc(-c2ccccc2)nc1CCOc1ccc(C[C@H](Nc2ccccc2C(=O)c2ccccc2)C(=O)O)cc1
1.0

In this assay, the call recorded for c1ccc2c(c1)Cc1ccccc1-2 was what?
0.0

Please indicate how the test categorized c1ccc2cc3c(ccc4ccccc43)cc2c1 .
0.0

Hello, I am checking results. What call was entered for C=C(C)C(=O)OCCC(F)(F)C(F)(F)C(F)(F)C(F)(F)C(F)(F)C(F)(F)F ?
0.0

Which outcome was assigned to Oc1cc2ccccc2c2ccccc12 in this test?
0.0

Kindly provide the recorded test outcome for the following compound: O=C(O)c1ccccc1C(c1ccc(O)cc1)c1ccc(O)cc1
0.0

###

Assay Overview: APR_HepG2_CellCycleArrest_72hr: Apredica 72-hour HepG2 Assay for Cell Cycle Arrest (AID 2282914)
Experimental Conditions: high-content imaging, actives raise or lower the signal
The source made the active and inactive calls. Rule for the calls: active = hit-call score of the fitted dose curve at least 0.9, where 1 is the maximum; inactive = score below 0.9.
Entry note: the call must match one of active, inactive

# count of solved cases: 2
>  <Compound Structure>
COC(=O)CCCCC(=O)OC

>  <Answer Label>
inactive

$$$$
>  <Compound Structure>
CC(C)(C)CC(C)(C)c1ccc(O)c(-n2nc3ccccc3n2)c1

>  <Answer Label>
active

$$$$

Attention now turns to another entry.
Please state the recorded outcome for this compound: CCCCCCCC(=O)O
inactive

###

Read-out: Heat shock 70 kDa protein 1 (HSPA1A), gene 3303
Assay Overview: LTEA_HepaRG_HSPA1A: Life Technologies and Expression Analysis (LTEA) Assay for Heat shock 70 kDa protein 1 (HSPA1A) using HepaRG (AID 2283502)
Experimental Conditions: mRNA level, 48 h; actives raise or lower the signal
Active and inactive are the calls of the source. Rule for the calls: active = hit-call score of the fitted dose curve at least 0.9, where 1 is the maximum; inactive = score below 0.9.
Respond using exactly one of the listed classes: t = active, f = inactive

Past entries and their recorded results:
>  <Compound>
c1ccc2cc3c(ccc4ccccc43)cc2c1

>  <Answer Label>
f

$$$$
>  <Compound>
NC(=O)N(O)[C@@H]1C=C[C@H](Oc2cccc(Oc3ccc(F)cc3)c2)C1

>  <Answer Label>
t

$$$$
>  <Compound>
Cc1oc(-c2ccccc2)nc1CCOc1ccc(C[C@H](Nc2ccccc2C(=O)c2ccccc2)C(=O)O)cc1

>  <Answer Label>
t

$$$$
>  <Compound>
Nc1cccc2c(N)cccc12

>  <Answer Label>
f

$$$$
>  <Compound>
CC(=O)NC1(c2cccc(F)c2)CCN(CC[C@@]2(c3ccc(Cl)c(Cl)c3)CN(c3ccccc3)C(=O)CO2)CC1

>  <Answer Label>
t

$$$$

Now consider a different compound.
Please state the recorded outcome for this compound: Oc1cccc(O)c1
f

###

Read-out: Transforming growth factor beta 1 (TGFb1), TGFB1 (gene 7040)
Assay Overview: BSK_BE3C_TGFb1: BioMAP Diversity Plus: BE3C Assay for Transforming growth factor beta 1 (TGFb1) Biomarker Activity (AID 2283036;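 further: TGF-b1 protein level measured by ELISA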)
Experimental Conditions: primary human bronchial epithelial cells; actives raise or lower the signal
Activity calls are given as the source filed them. Rule for the calls: active = hit-call score of the fitted dose curve at least 0.9, where 1 is the maximum; inactive = score below 0.9.
Your response should consist of one outcome taken from active, inactive

Recorded call for C=C(C)C(=O)OCCC(F)(F)C(F)(F)C(F)(F)C(F)(F)C(F)(F)C(F)(F)F ?
inactive

Name the outcome recorded for CC(C)(C)c1cc(C(C)(C)C)c(O)c(C(C)(C)C)c1 in the assay.
inactive

Per the assay record, what outcome was assigned to OCCC(F)(F)C(F)(F)C(F)(F)C(F)(F)C(F)(F)C(F)(F)F ?
inactive
